Test system: M. luteus CIP A270
assay.details: microbe, parasite or virus in culture
Type: cell-based, Micrococcus luteus
assay.context: Micrococcus luteus, CIPA270, median of 3–6 experiments
endpoint: MIC (µM)
// note: answer is a bare numeric in µM

>>> quantitative_result("CO[C@H]1/C=C/O[C@@]2(C)Oc3c(C)c(O)c4c(O)c(c(/C=N/N5CCN(C)CC5)c(O)c4c3C2=O)NC(=O)/C(C)=C\\C=C\\[C@H](C)[C@H](O)[C@@H](C)[C@@H](O)[C@@H](C)[C@H](OC(C)=O)[C@@H]1C")
0.003
>>> quantitative_result("CC1COc2c(N3CCN(C)CC3)c(F)cc3c(=O)c(C(=O)O)cn1c23 (stereo not shown)")
5
>>> quantitative_result("CNC(C)C1CCC(N)C(OC2C(N)CC(N)C(OC3OCC(C)(O)C(NC)C3O)C2O)O1 (stereo not shown)")
0.16

Proceed to the following item.
Input line: Please give the measured MIC for this compound: Cc1onc(-c2ccccc2)c1C(=O)N[C@@H]1C(=O)N2[C@@H]1SC(C)(C)[C@@H]2C(=O)O
Output line: 3.1
